Ref: paper PMC10294832

REPORTED_ENDPOINT: melting point

O=C(CCC(=O)Nc1ccc(-c2ccccc2)cc1)NCCCNCCCCNCCCNC(=O)CCC(=O)Nc1ccc(-c2ccccc2)cc1.O=C(O)C(F)(F)F.O=C(O)C(F)(F)F [Compound 21a]; 203 to 205 °C
O=C(NCCCNCCCCNCCCNC(=O)c1cccc2ccccc12)c1cccc2ccccc12.O=C(O)C(F)(F)F.O=C(O)C(F)(F)F [Compound 17a]; 238 to 239 °C
O=C(CCC(=O)Nc1ccc(-c2ccccc2)cc1)NCCCNCCCCCCCCCCNCCCNC(=O)CCC(=O)Nc1ccc(-c2ccccc2)cc1.O=C(O)C(F)(F)F.O=C(O)C(F)(F)F [Compound 21e]; 184 to 186 °C
O=C(O)CCC(=O)Nc1cccc2ccccc12; 165 to 167 °C
O=C(CCC(=O)Nc1ccc(-c2ccccc2)cc1)NCCCNCCCCCCNCCCNC(=O)CCC(=O)Nc1ccc(-c2ccccc2)cc1.O=C(O)C(F)(F)F.O=C(O)C(F)(F)F [Compound 21b]; 200 to 202 °C
O=C(CCC(=O)Nc1ccc(-c2ccccc2)cc1)NCCCNCCCCCCCCNCCCNC(=O)CCC(=O)Nc1ccc(-c2ccccc2)cc1.O=C(O)C(F)(F)F.O=C(O)C(F)(F)F [Compound 21d]; 182 to 184 °C
O=C(CCC(=O)Nc1ccc(-c2ccccc2)cc1)NCCCNCCCCCCCNCCCNC(=O)CCC(=O)Nc1ccc(-c2ccccc2)cc1.O=C(O)C(F)(F)F.O=C(O)C(F)(F)F [Compound 21c]; 178 to 180 °C
O=C(NCCCNCCCCNCCCNC(=O)c1ccc2ccccc2c1)c1ccc2ccccc2c1.O=C(O)C(F)(F)F.O=C(O)C(F)(F)F [Compound 19a]; 132 to 135 °C

response.value for O=C(NCCCNCCCCCCNCCCNC(=O)c1cccc2ccccc12)c1cccc2ccccc12.O=C(O)C(F)(F)F.O=C(O)C(F)(F)F [Compound 17b] (field: melting point) = 225 to 227 °C

response.value for "O=C(O)CCC(=O)Nc1ccc(-c2ccccc2)cc1" (field: melting point) = > 230 °C

* * *

Test system: A. baumannii (ATCC 19606)
Test: Antimicrobial MIC, A. baumannii
Type: cell-based, Acinetobacter baumannii
Details: Acinetobacter baumannii, ATCC19606, A. baumannii (ATCC 19606); mean (n = 2)
Protocol: The susceptibility of bacterial strains S. aureus (ATCC 25,923 or 29213), E. coli (ATCC 25922), and P. aeruginosa (ATCC 27853) to antibiotics and compounds was determined according to previously reported protocols. […]
This section presents compounds with their documented MIC values.

response.value for O=C(CCC(=O)Nc1ccc(-c2ccccc2)cc1)NCCCNCCCCCCNCCCNC(=O)CCC(=O)Nc1ccc(-c2ccccc2)cc1.O=C(O)C(F)(F)F.O=C(O)C(F)(F)F [Compound 21b] (field: MIC) = > 33.3 µM

response.value for O=C(NCCCNCCCCCCCCNCCCNC(=O)c1ccc2ccccc2c1)c1ccc2ccccc2c1.O=C(O)C(F)(F)F.O=C(O)C(F)(F)F [Compound 19d] (field: MIC) = > 40.3 µM

response.value for O=C(CCC(=O)Nc1ccc(-c2ccccc2)cc1)NCCCNCCCCCCCCCCNCCCNC(=O)CCC(=O)Nc1ccc(-c2ccccc2)cc1.O=C(O)C(F)(F)F.O=C(O)C(F)(F)F [Compound 21e] (field: MIC) = > 31.5 µM

* * *

Tested on: P. aeruginosa (ATCC 27853)
Experiment: Enhancement of doxycycline activity
Format: cell-based, Pseudomonas aeruginosa
Conditions: ratio between intrinsic MIC of test compound and combination MIC; doxycycline 4.5 µM; P. aeruginosa
This section presents molecules with their documented Dox/P.a fold change values.

# count of solved cases: 2
O=C(CCC(=O)Nc1cccc2ccccc12)NCCCNCCCCCCNCCCNC(=O)CCC(=O)Nc1cccc2ccccc12.O=C(O)C(F)(F)F.O=C(O)C(F)(F)F [Compound 18b]; > 2 fold
O=C(CCC(=O)Nc1cccc2ccccc12)NCCCNCCCCCCCCCCCCNCCCNC(=O)CCC(=O)Nc1cccc2ccccc12.O=C(O)C(F)(F)F.O=C(O)C(F)(F)F [Compound 18f]; > 2 fold

Entry O=C(NCCCNCCCCCCNCCCNC(=O)c1ccc2ccccc2c1)c1ccc2ccccc2c1.O=C(O)C(F)(F)F.O=C(O)C(F)(F)F [Compound 19b] , tested on P. aeruginosa (ATCC 27853), has a reported Dox/P.a fold change of > 2 fold

* * *

System: A. baumannii (ATCC 19606)
Assay: Antimicrobial MIC, A. baumannii
Assay type: cell-based, Acinetobacter baumannii
Details: Acinetobacter baumannii, ATCC19606, A. baumannii (ATCC 19606); mean (n = 2)
REPORTED_ENDPOINT: MIC

response.value for O=C(NCCCNCCCCCCCNCCCNC(=O)c1cccc2ccccc12)c1cccc2ccccc12.O=C(O)C(F)(F)F.O=C(O)C(F)(F)F [Compound 17c] (field: MIC) = > 41 µM

response.value for O=C(CCC(=O)Nc1cccc2ccccc12)NCCCNCCCCCCCCNCCCNC(=O)CCC(=O)Nc1cccc2ccccc12.O=C(O)C(F)(F)F.O=C(O)C(F)(F)F [Compound 18d] (field: MIC) = > 34.2 µM

response.value for O=C(NCCCNCCCCNCCCNC(=O)c1ccc2ccccc2c1)c1ccc2ccccc2c1.O=C(O)C(F)(F)F.O=C(O)C(F)(F)F [Compound 19a] (field: MIC) = > 43.3 µM
